- assay-text: NCI Yeast Anticancer Drug Screen. Data for the rad50 strain (AID 155);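 note: 0% = growth of vehicle-only cultures of the same strain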
- applied-conditions: S. cerevisiae rad50 strain growth inhibition; at 50.0 µM
- Protocol: Growth inhibition of yeast strains with defined genetic alterations is measured as a screen for potential anti-cancer activity. Selected strains with alterations in DNA damage repair or cell cycle control were exposed to compounds and growth inhibition was measured relative to vehicle treated controls. The strain used in this assay is rad50
Compounds without any hit were thinned out: in the full panel of roughly 79,000, 15% have a hit. Calls of active or inactive are those of the source. Cut-off read from the data, not from the text of the source: active = growth inhibition above about 70%; inactive = the rest.
Classes used: yes (1) = active, no (0) = inactive

molecule=NC(N)=N/N=C/c1c[nH]c2ccccc12 category="no (0)"
molecule=COc1cc([C@@H]2c3cc4c(c(O)c3C[C@H]3COC(=O)[C@@H]32)OCO4)cc(OC)c1O category="no (0)"
molecule="CC(Cl)C(=O)OC(C)C(=O)O (configuration not stated)" category="no (0)"
molecule=Cc1cc(N(CCCl)CCCl)ccc1C=Nc1ccc(-c2csc(Cc3ccccc3)n2)c(Cl)c1 category="yes (1)"
molecule=O=C1CCC(=O)N1[N+](=O)[O-] category="no (0)"
molecule=[Cl][Pt][Cl].[NH-]NC(=O)c1ccncc1 category="no (0)"
molecule=Cc1cc(N(CCCl)CCCl)ccc1C1N(Cc2ccc(Cl)cc2Cl)CCCN1Cc1ccc(Cl)cc1Cl category="no (0)"
molecule="COc1ccc2c(c1)CC(CN1CCC3(CC1)C(=O)NCN3c1ccccc1)O2 (configuration not stated)" category="yes (1)"
molecule=OCCBr category="no (0)"
molecule=COc1cc(/C=C(/C)[N+](=O)[O-])ccc1O category="yes (1)"
molecule=CCOP(=O)(OCC)/C(C#N)=C/c1cn(C)cn1 category="no (0)"
molecule=CC(C)CNP(=S)(NCC(C)C)c1ccccc1 category="no (0)"

* * *

- assay-text: NCI Yeast Anticancer Drug Screen. Data for the rad50 strain (AID 155);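 note: 0% = growth of vehicle-only cultures of the same strain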
- applied-conditions: S. cerevisiae rad50 strain growth inhibition; at 50.0 µM; stronger effect = higher value
Compounds without any hit were thinned out: in the full panel of roughly 79,000, 15% have a hit.
growth inhibition overview
attribute-measured: growth inhibition (%)

compound="O=C(O)CC(S)C(=O)O (stereo not drawn)" attribute_measured="growth inhibition" value_reported=-19.1
compound=CCOP(=O)(OCC)/C(C#N)=C/c1ccoc1 attribute_measured="growth inhibition" value_reported=-36
compound="CC(O)CN(CCN(CC(C)O)CC(C)O)CC(C)O.O=[N+]([O-])O.[Cu+2] (stereo not drawn)" attribute_measured="growth inhibition" value_reported=6.05
compound=CC1(C)OP(=O)(O)C=C1[Se]c1ccccc1 attribute_measured="growth inhibition" value_reported=19.2
compound=COc1ccc([C@H]2N[C@@H]2c2ccccn2)cc1 attribute_measured="growth inhibition" value_reported=3.25
compound=C=CC(=O)NCO attribute_measured="growth inhibition" value_reported=-3.9
compound="COc1ccc2c(c1O)CNCC2c1ccc(O)cc1O (stereo not drawn)" attribute_measured="growth inhibition" value_reported=0.6
compound=O=C(N/N=C/c1cc(Br)cc(Br)c1[O-])c1ccccc1O.O=C(N/N=C/c1cc(Br)cc(Br)c1[O-])c1ccccc1O.[Mn+2] attribute_measured="growth inhibition" value_reported=97.6
compound=CCCCSP(=S)(SCCCC)c1ccc(Cl)cc1 attribute_measured="growth inhibition" value_reported=30.7
compound="CCCCCCN1C(C)C1C(C)C (stereo not drawn)" attribute_measured="growth inhibition" value_reported=5.7
compound=CN1C[C@H]2[C@@H](C1=O)[C@H](c1ccccc1)ON2C attribute_measured="growth inhibition" value_reported=-16.4
compound="C[CH2][Sn]1([CH2]C)[O]C2C(OC)OC3COC(c4ccccc4)OC3C2[O]1 (stereo not drawn)" attribute_measured="growth inhibition" value_reported=18.4
compound="O=C(O)CC1NCc2cc3ccccc3nc21 (stereo not drawn)" attribute_measured="growth inhibition" value_reported=6.4
compound="CCCCC(CC)C(=O)O.[Sn] (stereo not drawn)" attribute_measured="growth inhibition" value_reported=-20.5
compound="CC12CCC3C(CC=C4CC(SC(=N)N)CCC43C)C1CCC2=O (stereo not drawn)" attribute_measured="growth inhibition" value_reported=67.3
compound=O=C(CC(=O)C(F)(F)F)c1ccco1 attribute_measured="growth inhibition" value_reported=34
compound=COc1ccc([Se][Se]c2ccc(OC)cc2OC)c(OC)c1 attribute_measured="growth inhibition" value_reported=88.3
compound="C=CCn1cc2c3c(cccc31)C1CC(C)CN(C)C1C2 (stereo not drawn)" attribute_measured="growth inhibition" value_reported=34.5
compound=[C-]#[O+].[C-]#[O+].[C-]#[O+].[Mo].c1ccc([PH+](CC[As](c2ccccc2)c2ccccc2)CC[As](c2ccccc2)c2ccccc2)cc1 attribute_measured="growth inhibition" value_reported=11.4
compound=NCC#CCNCCCN1CC1 attribute_measured="growth inhibition" value_reported=8.2
compound=O=NNc1ccc(Br)cn1 attribute_measured="growth inhibition" value_reported=-2.7
compound=Oc1cccc2cccnc12.[Cr] attribute_measured="growth inhibition" value_reported=6
compound=CCOC(=O)/C(=C\c1ccc(C(F)(F)F)cc1)[Se]c1ccccc1 attribute_measured="growth inhibition" value_reported=26.6
compound="CCC(C)C1NC(=O)C2CCCN2C(=O)C(CC2CO2)OC(=O)CCNC(=O)C(C)N(C)C(=O)C(C(C)C)N(C)C1=O (stereo not drawn)" attribute_measured="growth inhibition" value_reported=55.1
compound="CN(Cc1ccccc1)CC(O)c1ccccc1Cl (stereo not drawn)" attribute_measured="growth inhibition" value_reported=-0.75
compound="CCC(Cl)COP(=O)(OCC(Cl)CC)O/C(C)=C(\\C)OP(=S)(OCC(Cl)CC)OCC(Cl)CC (stereo not drawn)" attribute_measured="growth inhibition" value_reported=86.5
compound=CC(=O)c1cc2c(cc1O)C(C)(C)CCC2(C)C attribute_measured="growth inhibition" value_reported=97.8
compound="CO[C@@]12[C@@H]3N[C@@H]3CN1C1=C(C(=O)C(NCC3CCCO3)=C(C)C1=O)[C@@H]2COC(N)=O (stereo partly drawn)" attribute_measured="growth inhibition" value_reported=24.9
compound=CCOC(OCC)c1ccccc1 attribute_measured="growth inhibition" value_reported=7.95
compound="CN1CNC2C(=O)CCC2c2ccccc21 (stereo not drawn)" attribute_measured="growth inhibition" value_reported=-12.2
compound=CCN(CC)CCN(Cc1ccccc1)C(=O)C(O)(c1ccccc1)c1ccccc1 attribute_measured="growth inhibition" value_reported=-0.4
compound="COc1ccc(CC(N)c2ccccc2)cc1 (stereo not drawn)" attribute_measured="growth inhibition" value_reported=8.25
compound=BrP(NC1CCCCCC1)(c1ccccc1)(c1ccccc1)c1ccccc1 attribute_measured="growth inhibition" value_reported=98.5
compound=CCCCOP(=O)(NCCOC)OCCCC attribute_measured="growth inhibition" value_reported=-0.05
compound=O=C(/C=C/c1ccc([N+](=O)[O-])cc1Cl)Nc1cccc(S(=O)(=O)F)c1 attribute_measured="growth inhibition" value_reported=6
compound="CC(C)=CC1C(C(=O)OCc2ccc(Cl)c(Cl)c2)C1(C)C (stereo not drawn)" attribute_measured="growth inhibition" value_reported=4.25
compound="O=[N+]([O-])c1cc(/C=N\\NC(=S)NC2CN3CCC2CC3)ccc1Cl (stereo not drawn)" attribute_measured="growth inhibition" value_reported=22.5
compound=C[n+]1c[se]cn1 attribute_measured="growth inhibition" value_reported=-2.9
compound="COc1cc(C2c3cc4c(c(O)c3C[C@H]3COC(=O)[C@@H]23)OCO4)cc(OC)c1O (stereo partly drawn)" attribute_measured="growth inhibition" value_reported=-25.7
compound="O=C(CBr)OCC(Br)CBr (stereo not drawn)" attribute_measured="growth inhibition" value_reported=99.2
compound=COC(=O)C1=CO[C@@H](C)[C@@H]2CN3CCc4c([nH]c5cc(OC)ccc45)[C@H]3C[C@H]12 attribute_measured="growth inhibition" value_reported=-43.8
compound="COc1cccc2c1C(=O)c1c(O)c3c(c(O)c1C2=O)CC(O)(C(C)=O)CC3OC1CC([N+](C)(C)C)C(O)C(C)O1 (stereo not drawn)" attribute_measured="growth inhibition" value_reported=97
compound=Cc1cc(C)[n+](CCc2ccccc2)c(C)c1 attribute_measured="growth inhibition" value_reported=5.15
compound=O=C(O)C(O)(c1ccc(-c2ccccc2)cc1)c1ccc(-c2ccccc2)cc1 attribute_measured="growth inhibition" value_reported=96.4
compound="O=C1NCCCCC1Cl (stereo not drawn)" attribute_measured="growth inhibition" value_reported=-12.4
compound="CC(N)C(O)c1ccc(O)cc1 (stereo not drawn)" attribute_measured="growth inhibition" value_reported=-14
compound="CC1(C)COP(=O)(c2ccccc2)N1 (stereo not drawn)" attribute_measured="growth inhibition" value_reported=-14.1
compound=O=c1[nH]cc(CCl)c(=O)[nH]1 attribute_measured="growth inhibition" value_reported=3.2

The measured values listed here are drawn from PubChem BioAssay (NCI).
